- System: Human immunodeficiency virus 1
- procedure_text: Resistance factor, ratio of EC50 for HIV1 harboring reverse transcriptase L100I mutant to EC50 for wild type HIV1
- Assay type: functional
recorded_endpoint: Ratio EC50

Past entries and their recorded results:
chemical_structure	Ratio EC50
Cc1cc(C#N)cc(C)c1Oc1nc(NC2CCN(Cc3ccc(S(N)(=O)=O)cc3)CC2)nc2c1COC2	1.1
Cc1cc(C#N)cc(C)c1Oc1nc(NC2CCN(Cc3ccc(S(N)(=O)=O)cc3)CC2)nc2c1CCC2	5.3
Cc1cc(C#N)cc(C)c1Oc1nc(NC2CCN(Cc3ccc(C(N)=O)cc3)CC2)nc2c1SCC2	3.3
Cc1cc(C#N)cc(C)c1Oc1nc(NC2CCN(Cc3ccc(S(C)(=O)=O)cc3)CC2)nc2c1COC2	1.8
Cc1cc(C#N)cc(C)c1Oc1nc(NC2CCN(Cc3ccc(S(N)(=O)=O)cc3)CC2)nc2c1SCCC2	4.7
Cc1cc(C#N)cc(C)c1Oc1nc(NC2CCN(Cc3ccc(C(N)=O)cc3)CC2)nc2c1COC2	1.5
Cc1cc(C#N)cc(C)c1Oc1nc(NC2CCN(Cc3ccc(S(N)(=O)=O)cc3)CC2)nc2c1SCC2	1.2

Input line: Please give the measured Ratio EC50 for this compound: Cc1cc(C#N)cc(C)c1Oc1nc(NC2CCN(Cc3ccncc3)CC2)nc2c1COC2
Output line: 1.8
